Biological target: ScCyk3
Test: SPOT peptide array binding signal intensity (averaged, normalized) (arbitrary units (background-subtracted, floor 0; scale differs between SH3 domains)); higher = stronger binding of the SH3 domain to the peptide
Property: SPOT peptide array binding signal intensity

>  <Binder>
SAPDIPPRSPNRNAH

>  <Operator>
≤

>  <Recorded Measurement>
0

$$$$
>  <Binder>
RKLRTVPGVPLIHLT

>  <Operator>
=

>  <Recorded Measurement>
9

$$$$
>  <Binder>
SNRRPVPRRPSQPLN

>  <Operator>
=

>  <Recorded Measurement>
17

$$$$
>  <Binder>
KRNRLKILLPFLEQS

>  <Operator>
=

>  <Recorded Measurement>
102

$$$$
